- system-under-test: HLA-A*1101 (Human)
- condition-info: remark: other sources report otherwise
Known binding affinity ratio (IC50 of standard peptide/IC50 of test peptide) of a selection of binders
Write the number on its own, no unit after it.

Some entries whose results are on file:
>  <binder>
RTEEENLRK [p53 peptide … (position 283, 9 amino acids)]

>  <quantitative-readout>
0.091

$$$$
>  <binder>
TSRHKKLMFK [p53 peptide … (position 377, 10 amino acids)]

>  <quantitative-readout>
0.0052

$$$$
>  <binder>
SSCMGGMNRR [p53 peptide … (position 240, 10 amino acids)]

>  <quantitative-readout>
0.086

$$$$
>  <binder>
VTCTYSPALNK [p53 peptide … (position 122, 11 amino acids)]

>  <quantitative-readout>
0.12

$$$$

IN: Item under review: TSSSPQPK [p53 peptide TSSSPQPK (position 312, 8 amino acids)] . Reported binding affinity ratio (IC50 of standard peptide/IC50 of test peptide)?
OUT: 0.0019

IN: May I ask what binding affinity ratio (IC50 of standard peptide/IC50 of test peptide) has been recorded for RTEEENLRKK [p53 peptide … (position 283, 10 amino acids)] ?
OUT: 0.008

IN: What does the data say about its binding affinity ratio (IC50 of standard peptide/IC50 of test peptide)? Entry: RVRAMAIYK [p53 peptide … (position 156, 9 amino acids)]
OUT: 0.73

IN: Please look up its binding affinity ratio (IC50 of standard peptide/IC50 of test peptide): SSCMGGMNR [p53 peptide … (position 240, 9 amino acids)]
OUT: 1.4

Where these numbers come from: patent US20050196403A1
